organism: Mus musculus; test: Concentration of compound producing anticonvulsant drug-inducedneurologic deficit after 0.5 hrs done by rotarod ataxia test in mouse; details: in vivo
Quick reference for Dose among some compounds
Give your result in mg/kg as a bare value.

# annotated cases, reported Dose shown
Exercise: Return reported Dose; argument: COc1ccc(COc2ccc3c(c2)CCc2nncn2-3)cc1
Key: 300

Exercise: Return reported Dose; argument: Brc1cccc(COc2ccc3c(c2)CCc2nncn2-3)c1
Key: 100

Exercise: Return reported Dose; argument: CCCCCCOc1ccc2c(c1)CCc1nncn1-2
Key: 100

Exercise: Return reported Dose; argument: c1ccc(COc2ccc3c(c2)CCc2nncn2-3)cc1
Key: 100

Exercise: Return reported Dose; argument: c1cc2c(cc1COc1ccc3c(c1)CCc1nncn1-3)OCO2
Key: 300

Others:
Exercise: Return reported Dose; argument: CCCCOc1ccc2c(c1)CCc1nncn1-2
Key: 100

Exercise: Return reported Dose; argument: Cc1ccc(COc2ccc3c(c2)CCc2nncn2-3)cc1
Key: 100

Exercise: Return reported Dose; argument: CCCOc1ccc2c(c1)CCc1nncn1-2
Key: 100
